The measured values listed here are drawn from ChEMBL document CHEMBL1201862.

- Tested on: SK-MEL-2
- ASSAY OVERVIEW: NCI tumour cell line growth inhibition, 48 h
Calls of active or inactive are those of the source. Cut-off read from the data, not from the text of the source: active = GI50 up to about 1.1 µM and inactive = higher.
ENDPOINT NAME: GI50

# value lookup — system SK-MEL-2, readout GI50, item O=c1c(C(c2ccc3ccccc3c2)c2c(O)oc3cc(O)ccc3c2=O)c(O)oc2cc(O)ccc12
> 100 µM (inactive)

What GI50 appears in the records for this compound with SK-MEL-2? CCOC(=O)c1c(Br)c(-c2ccc(Br)cc2)c(Br)n1C
> 10 µM (inactive)

State its GI50 on SK-MEL-2: COc1ccc2c(C=O)c3n(c(=O)c2c1OC)CCc1cc2c(cc1-3)OCO2
25.9 µM (inactive)

Give recorded GI50 with SK-MEL-2 for the following compound: Cc1ccc2nc(C(=O)O)c(=O)[nH]c2c1
> 100 µM (inactive)

What GI50 appears in the records for this compound with SK-MEL-2? CC1=C(Oc2ccccc2)C(CCC(=O)O)c2c(O)cc(Cl)c(O)c21 (stereo not given)
> 100 µM (inactive)

Request: GI50, test system SK-MEL-2, entry CC(=O)Oc1c(C)cc2c(c1C)C(C)CN2C(C)=O (stereo not given)
> 100 µM (inactive)

Find GI50 (SK-MEL-2) for the entry Cn1c2c([N+](=O)[O-])[se]nc2c(=O)n1-c1ccc([N+](=O)[O-])cc1
3.34 µM (inactive)

Lab request: please report GI50 under test system SK-MEL-2 for COc1ccc(-c2cc(Cc3cccs3)c(=O)[nH]n2)cc1
> 100 µM (inactive)

Observed GI50 on SK-MEL-2 for Cc1cc(N(CCC#N)CCC#N)ccc1/C=C(/NC(=O)/C=C/c1ccccc1)C(N)=O , please.
> 100 µM (inactive)

Value wanted: GI50 (SK-MEL-2) of entry CNC(C)C(O)c1ccc2oc3cc(=O)c4ccccc4c-3nc2c1 (stereo not given)
4.69 µM (inactive)

* * *

- Test system: SNB-75
- ASSAY OVERVIEW: NCI tumour cell line growth inhibition, 48 h
The source made the active and inactive calls. No stated cut-off is given here; in the data, active = GI50 up to about 1.1 µM and inactive = higher.
What GI50 was measured for each of the following?

Which GI50 value is on record for CC(=O)O[C@H]1CC[C@@]2(C)[C@@H](CC[C@@H]3[C@@H]2CC(=O)[C@@]2(C)[C@H]3C[C@@H]3CC(C)=CC(=O)[C@@H]32)C1 ?
30.1 µM (inactive)

# get_value(readout='GI50', item= CC1C(O)=C(O)c2ccccc2N1O (centres undefined) )
> 100 µM (inactive)

Item under review: CCCCCCCCCCCCCCCCCCNc1nc(=O)n(C2CC(O)C(COP(=O)(O)O)O2)cc1F (centres undefined) . Reported GI50?
> 100 µM (inactive)

Which GI50 reading was recorded for the compound CN(C)CCCSc1c2ccccc2nc2cc(NCC(=O)Nc3ccccc3-c3ccccc3NC(=O)CNc3ccc4c(SCCCN(C)C)c5ccccc5nc4c3)ccc12 ?
> 100 µM (inactive)

Quick check: GI50 of C/C(=C/C(=O)N(C)c1ccccc1Cl)O[Si](C(C)C)(C(C)C)C(C)C ?
29.4 µM (inactive)

What does the data say about its GI50? Entry: O=C(/C=C/c1ccc(Cl)c(Cl)c1)c1ccc(F)cc1
22.9 µM (inactive)

Reported GI50, compound CN1CCN(CCNc2ccc(CO)c3sc4ccccc4c(=O)c23)CC1 : ____
9.48 µM (inactive)

Quick one: GI50 of C=C1CCCC(C)(C)[C@@H]1CC/C(C)=C/Cn1c2cccc(=O)c-2nc2ccccc21 ?
1.41 µM (inactive)

Given the entry COC(=O)C#CC1(O)C=CC(=O)C=C1 , report its measured GI50.
3.9 µM (inactive)
